# Measured On: ADAMTS-7 (Homo sapiens, UniProt Q9UKP4)
# Construct: the recombinant construct ADAMTS7-T8, which lacks the C-terminal PLAC domain; made in house
# Sequence (Q9UKP4 237-1631 limits assumed): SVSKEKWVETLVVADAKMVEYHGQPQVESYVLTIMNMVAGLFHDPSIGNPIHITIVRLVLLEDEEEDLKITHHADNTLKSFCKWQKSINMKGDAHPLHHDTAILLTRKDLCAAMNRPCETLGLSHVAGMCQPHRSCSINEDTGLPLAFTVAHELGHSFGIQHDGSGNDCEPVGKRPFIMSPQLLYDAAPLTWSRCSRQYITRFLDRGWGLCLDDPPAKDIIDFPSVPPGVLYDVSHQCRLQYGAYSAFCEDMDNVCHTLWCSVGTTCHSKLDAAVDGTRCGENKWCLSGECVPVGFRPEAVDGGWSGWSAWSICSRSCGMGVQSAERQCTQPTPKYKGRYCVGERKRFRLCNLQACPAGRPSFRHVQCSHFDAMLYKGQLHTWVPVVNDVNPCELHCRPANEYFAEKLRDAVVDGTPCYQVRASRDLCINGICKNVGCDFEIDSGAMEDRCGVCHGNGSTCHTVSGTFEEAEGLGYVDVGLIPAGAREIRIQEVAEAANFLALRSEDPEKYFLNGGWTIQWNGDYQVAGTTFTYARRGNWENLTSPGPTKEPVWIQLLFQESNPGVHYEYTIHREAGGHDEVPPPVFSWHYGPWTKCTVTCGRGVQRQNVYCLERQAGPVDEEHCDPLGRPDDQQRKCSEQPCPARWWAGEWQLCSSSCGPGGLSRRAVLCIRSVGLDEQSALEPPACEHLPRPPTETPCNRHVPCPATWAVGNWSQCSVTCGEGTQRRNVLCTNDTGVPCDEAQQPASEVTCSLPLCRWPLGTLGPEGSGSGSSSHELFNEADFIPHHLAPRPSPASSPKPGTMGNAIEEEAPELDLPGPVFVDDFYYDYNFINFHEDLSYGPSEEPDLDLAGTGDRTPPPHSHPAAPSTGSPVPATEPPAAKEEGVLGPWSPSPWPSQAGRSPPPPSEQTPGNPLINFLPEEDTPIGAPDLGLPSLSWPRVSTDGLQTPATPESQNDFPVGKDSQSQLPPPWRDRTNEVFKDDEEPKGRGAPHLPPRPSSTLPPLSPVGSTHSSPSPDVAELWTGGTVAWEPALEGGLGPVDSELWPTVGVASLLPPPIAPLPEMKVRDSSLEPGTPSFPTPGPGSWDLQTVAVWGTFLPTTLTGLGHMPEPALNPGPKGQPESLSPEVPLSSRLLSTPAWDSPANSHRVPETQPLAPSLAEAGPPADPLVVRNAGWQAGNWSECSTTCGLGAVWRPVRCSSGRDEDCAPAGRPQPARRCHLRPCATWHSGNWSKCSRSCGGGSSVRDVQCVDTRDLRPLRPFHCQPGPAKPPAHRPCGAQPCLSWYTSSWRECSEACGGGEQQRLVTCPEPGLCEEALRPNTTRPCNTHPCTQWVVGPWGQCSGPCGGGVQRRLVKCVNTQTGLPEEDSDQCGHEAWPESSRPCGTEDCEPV
# Protocol Text: LTBP4S-A cleavage assay (SDS-PAGE, densitometry)
# Type: biochemical
# Stated Conditions: ADAMTS-7 19 nM, 2 h preincubation, LTBP4S-A 5.6 μM, 17 h; read-out: IC50 (LTBP4S-A substrate)
Recorded Metric: pIC50
The scale used: pIC50 is minus the common logarithm of the concentration in molar units.

Look up and state reported pIC50 for O=C(NCCC[C@@H](NS(=O)(=O)c1ccc(OCc2ccc(F)cc2Cl)cc1)C(=O)NO)c1ccccc1 [EDV33]
6.95

---

# Measured On: ADAMTS-7 (Homo sapiens, UniProt Q9UKP4)
# Construct: the recombinant construct ADAMTS7-T8, which lacks the C-terminal PLAC domain; made in house
# Protocol Text: Inhibition of ADAMTS-7 cleavage of FRET substrate ATS7FP7
# Format: biochemical
# Stated Conditions: ATS7FP7 40 μM, 1 h preincubation, 37 °C
Recorded Metric: IC50 (nM)
The answer is to be given in nM; state only the numeric part.

Look up and state reported IC50 for "O=C(NCCC[C@@H](NS(=O)(=O)c1ccc(OCc2ccc(F)cc2Cl)cc1)C(=O)NO)c1ccccc1"
330

---

# Measured On: ADAMTS-7 (Homo sapiens)
# Construct: the recombinant construct ADAMTS7-T8, which lacks the C-terminal PLAC domain; made in house
# Protocol Text: Inhibition of ADAMTS-7 cleavage of FRET substrate ATS7FP7
# Format: biochemical
# Stated Conditions: read-out: Ki app (ATS7FP7 substrate)
Recorded Metric: Ki (nM)
The answer is to be given in nM; state only the numeric part.

Look up and state reported Ki for "O=C(NCCC[C@@H](NS(=O)(=O)c1ccc(OCc2ccc(F)cc2Cl)cc1)C(=O)NO)c1ccccc1"
68
